The reported measurements were obtained from ChEMBL document CHEMBL1649367.

Recorded Activity, one value per entry.
Test system: MCF7
ASSAY PROTOCOL: Cytotoxicity against human MCF7 cells assessed as cell surviving fraction at 100 uM after 48 hrs by SRB assay
Format: functional
PROPERTY MEASURED: Activity

[[record]]
input_smiles = "CCOC(=O)c1c(-c2ccc(O)c(OC)c2)c(C#N)c(=O)n(/N=C(\\C)c2ccc(S(=O)(=O)N3CCCCC3)cc2)c1N"
measured_result = 0.478

[[record]]
input_smiles = "CCOC(=O)c1c(-c2ccc(N(C)C)cc2)c(C#N)c(=O)n(/N=C(\\C)c2ccc(S(=O)(=O)N3CCCCC3)cc2)c1N"
measured_result = 0.407

[[record]]
input_smiles = "CCOC(=O)c1c(-c2ccc(OC)cc2)c(C#N)c(=O)n(/N=C(\\C)c2ccc(S(=O)(=O)N3CCCCC3)cc2)c1N"
measured_result = 0.375

[[record]]
input_smiles = "CCOC(=O)c1c(N)sc(C(=O)N/N=C(\\C)c2ccc(S(=O)(=O)N3CCCCC3)cc2)c1N"
measured_result = 0.841


###

Recorded Activity, one value per entry.
Tested on: MCF7
ASSAY PROTOCOL: Cytotoxicity against human MCF7 cells assessed as cell surviving fraction at 100 uM after 48 hrs by SRB assay
Format: functional
PROPERTY MEASURED: Activity

[[record]]
molecule = "C/C(=N\\NC(=O)CC#N)c1ccc(S(=O)(=O)N2CCCCC2)cc1"
measured_result = 0.511

[[record]]
molecule = "C/C(=N\\NC(=O)c1sc2c(c1N)CCC2)c1ccc(S(=O)(=O)N2CCCCC2)cc1"
measured_result = 0.375

[[record]]
molecule = "COc1cccc2c1C(=O)c1c(O)c3c(c(O)c1C2=O)C[C@@](O)(C(=O)CO)C[C@@H]3O[C@H]1C[C@H](N)[C@H](O)[C@H](C)O1 [DOXORUBICIN]"
measured_result = 0.494

[[record]]
molecule = "C/C(=N\\n1c(O)cc(N)c(C#N)c1=O)c1ccc(S(=O)(=O)N2CCCCC2)cc1"
measured_result = 0.437

[[record]]
molecule = "CCOC(=O)c1c(-c2ccc(O)cc2)c(C#N)c(=O)n(/N=C(\\C)c2ccc(S(=O)(=O)N3CCCCC3)cc2)c1N"
measured_result = 0.641


###

System: MCF7
ASSAY PROTOCOL: Cytotoxicity against human MCF7 cells assessed as cell surviving fraction at 10 uM after 48 hrs by SRB assay
Type: functional
Recorded Activity, one value per entry.
PROPERTY MEASURED: Activity

[[record]]
input_smiles = "C/C(=N\\NC(=O)c1sc2c(c1N)CCC2)c1ccc(S(=O)(=O)N2CCCCC2)cc1"
measured_result = 0.942

[[record]]
input_smiles = "C/C(=N\\NC(=O)c1sc(=S)n(-c2ccccc2)c1N)c1ccc(S(=O)(=O)N2CCCCC2)cc1"
measured_result = 0.861

[[record]]
input_smiles = "CCOC(=O)c1c(-c2ccc(O)cc2)c(C#N)c(=O)n(/N=C(\\C)c2ccc(S(=O)(=O)N3CCCCC3)cc2)c1N"
measured_result = 0.925

[[record]]
input_smiles = "C/C(=N\\NC(=O)c1sc(N)c(C#N)c1N)c1ccc(S(=O)(=O)N2CCCCC2)cc1"
measured_result = 0.588

[[record]]
input_smiles = "CCOC(=O)c1c(-c2ccc(O)c(OC)c2)c(C#N)c(=O)n(/N=C(\\C)c2ccc(S(=O)(=O)N3CCCCC3)cc2)c1N"
measured_result = 0.921

[[record]]
input_smiles = "CCOC(=O)c1c(-c2ccc(OC)cc2)c(C#N)c(=O)n(/N=C(\\C)c2ccc(S(=O)(=O)N3CCCCC3)cc2)c1N"
measured_result = 0.972

[[record]]
input_smiles = "CCOC(=O)c1c(N)sc(C(=O)N/N=C(\\C)c2ccc(S(=O)(=O)N3CCCCC3)cc2)c1N"
measured_result = 1.925

[[record]]
input_smiles = "COc1cccc2c1C(=O)c1c(O)c3c(c(O)c1C2=O)C[C@@](O)(C(=O)CO)C[C@@H]3O[C@H]1C[C@H](N)[C@H](O)[C@H](C)O1"
measured_result = 0.721

[[record]]
input_smiles = "C/C(=N\\n1c(N)cc(N)c(C#N)c1=O)c1ccc(S(=O)(=O)N2CCCCC2)cc1"
measured_result = 0.371

[[record]]
input_smiles = "C/C(=N\\n1c(O)cc(N)c(C#N)c1=O)c1ccc(S(=O)(=O)N2CCCCC2)cc1"
measured_result = 0.748

[[record]]
input_smiles = "CCOC(=O)c1c(-c2ccc(N(C)C)cc2)c(C#N)c(=O)n(/N=C(\\C)c2ccc(S(=O)(=O)N3CCCCC3)cc2)c1N"
measured_result = 0.861

[[record]]
input_smiles = "C/C(=N\\NC(=O)CC#N)c1ccc(S(=O)(=O)N2CCCCC2)cc1"
measured_result = 0.944

[[record]]
input_smiles = "CCOC(=O)c1c(-c2ccc(Cl)cc2)c(C#N)c(=O)n(/N=C(\\C)c2ccc(S(=O)(=O)N3CCCCC3)cc2)c1N"
measured_result = 0.818

[[record]]
input_smiles = "C/C(=N\\NC(=O)c1sc2c(c1N)CCCC2)c1ccc(S(=O)(=O)N2CCCCC2)cc1"
measured_result = 0.971

[[record]]
input_smiles = "CCOC(=O)c1c(-c2ccc(C)cc2)c(C#N)c(=O)n(/N=C(\\C)c2ccc(S(=O)(=O)N3CCCCC3)cc2)c1N"
measured_result = 0.911

